Listing: Kd of selected binders
# targetUnderTest: T1, human SIRPα1 (huSIRPα1), protein antigen (human, UniProt P78324 31-370, limits assumed, biotinylated in the SPR assay)
# T1 construct: Coated on the plate in ELISA, biotinylated and captured in SPR; also called v2
# T1 sequence (P78324 other isoform, or with tags, fused parts or gaps limits assumed): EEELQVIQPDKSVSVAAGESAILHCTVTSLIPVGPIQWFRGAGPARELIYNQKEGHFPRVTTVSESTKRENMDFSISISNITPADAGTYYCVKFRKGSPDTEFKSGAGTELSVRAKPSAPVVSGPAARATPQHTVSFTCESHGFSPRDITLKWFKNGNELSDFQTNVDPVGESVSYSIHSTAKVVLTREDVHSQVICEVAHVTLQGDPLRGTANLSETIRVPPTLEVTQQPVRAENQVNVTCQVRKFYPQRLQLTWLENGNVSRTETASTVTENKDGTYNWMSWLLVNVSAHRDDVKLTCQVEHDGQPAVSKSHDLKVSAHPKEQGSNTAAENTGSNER
# measurementDescription: SPR, biotinylated antigen captured, 25 C
resultType: Kd (nM)

binder	u	resultModifier	measurement
12C4huIgG1LALA (antibody, V domains shown, HAVT20 leader left out; also called 12C4LALA; huIgG112C4LALA) VH: EVKLEESGGGLMQPGGSMKLSCVASGFTFSNYWMNWVRQSPEKGLEWVAEIRLKSNNYATHYAESVKGRFTISRDDSKSSVYLQMNNLRAEDTGIYYCIRDYDYDAYFDYWGQGTTLTVSS VL: DIVLTQSPASLAVSLGQRATISCRASKSVSTSGYNYMYWYQQKPGQPPKLLIYLASNLESGVPARFSGSGSGTDFTLNIHPVEEEDAATYYCQHSGELPYTFGGGTKLEIKR	nM	=	0.087
KWAR23 mouse IgG2a (antibody, V domains shown) VH: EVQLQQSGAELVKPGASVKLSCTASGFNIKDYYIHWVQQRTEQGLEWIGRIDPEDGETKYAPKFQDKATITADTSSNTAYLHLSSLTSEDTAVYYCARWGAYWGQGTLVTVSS VL: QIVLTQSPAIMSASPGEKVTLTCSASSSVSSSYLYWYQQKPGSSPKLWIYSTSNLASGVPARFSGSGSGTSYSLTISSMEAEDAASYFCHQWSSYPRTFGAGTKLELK	nM	<	0.01
anti-SIRPα antibody 10 humanized (antibody, human IgG1, kappa, L234A L235A, V domains shown, Humanized, human IgG1 LALA / kappa) VH: KVEESGGGLVQPGGSLRLSCAASGFSLSSYVMGWVRQAPGKGLEWVSIISSSGSPYYASWVNGRFTISKDNSEGMVYLQMNSLRAEDTAVYYCARVGPLGVDYFNIWGQGTTVTVSS VL: DIVMTQSPDSLAVSLGERATINCQAGQSINSYLAWYQQKPGQPPKLLIYYASTLESGVPDRFSGSGSGTDFTLTISSLQAEDVAVYYCQSWHYISRSYAFGGGTKLEIKR	nM	=	3.2
KWAR23 huIgG1LALA (antibody, V domains shown) VH: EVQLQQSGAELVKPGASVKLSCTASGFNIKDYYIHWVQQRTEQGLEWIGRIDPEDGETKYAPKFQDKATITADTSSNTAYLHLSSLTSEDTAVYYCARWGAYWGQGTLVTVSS VL: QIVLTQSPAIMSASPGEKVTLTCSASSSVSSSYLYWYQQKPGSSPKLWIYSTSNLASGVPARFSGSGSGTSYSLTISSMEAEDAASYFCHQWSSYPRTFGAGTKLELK	nM	=	0.011

The reported numbers originate from patent US20220195063A1.
